Tested on: SNB-75
runDescription: NCI tumour cell line growth inhibition, 48 h
Calls of active or inactive are those of the source. Rule as the data show it: active = GI50 up to about 1.1 µM and inactive = higher. Where a SMILES comes first, the peptide text is derived from it. The star is where a group is joined. Boc = CC(C)(C)OC(=O)*
Your answer must be one of the following: 1 (yes) (active), 0 (no) (inactive)

// known answers, use as guide
[[record]]
compound = "CC1=C(C(=O)OC2CC3CCC2(C)C3(C)C)C2Nc3ccccc3N(C)C2O1 (configuration not stated)"
testedsystem = "SNB-75"
labelvalue = "0 (no)"

[[record]]
compound = "COC(=O)c1c/c(=N\\NC(=O)CC(=O)Nc2ccccc2OC)c2ccccc2o1"
testedsystem = "SNB-75"
labelvalue = "0 (no)"

[[record]]
compound = "CN(C)S(=O)(=O)c1ccc(Nc2ccc(O)c3c2C(=O)c2c([N+](=O)[O-])ccc(O)c2C3=O)cc1"
testedsystem = "SNB-75"
labelvalue = "0 (no)"

[[record]]
compound = "CC[C@@]1(O)C(=O)OCc2c1cc1n(c2=O)Cc2c-1nc1ccccc1c2/C=N/c1ccccc1N[C@@H]1c2cc3c(cc2[C@@H](c2cc(OC)c(O)c(OC)c2)[C@H]2C(=O)OC[C@@H]21)OCO3"
testedsystem = "SNB-75"
labelvalue = "1 (yes)"

[[record]]
compound = "COc1ccccc1C1ON=C(c2ccc([N+](=O)[O-])cc2)N1C12CC3CC(CC(C3)C1)C2 (configuration not stated)"
testedsystem = "SNB-75"
labelvalue = "0 (no)"

[[record]]
compound = "CCOC(=O)C1N(S(=O)(=O)c2ccc(C)cc2)CCC12c1ccccc1N(C(C)=O)C2C(/C=C/C(=O)OC)=C/C(=O)OC (configuration not stated)"
testedsystem = "SNB-75"
labelvalue = "0 (no)"

[[record]]
compound = "O=C1C=C(NCCc2ccc(O)cc2)C(=O)C=C1NCCc1ccc(O)cc1"
testedsystem = "SNB-75"
labelvalue = "0 (no)"

[[record]]
compound = "CCOC(=O)c1ncn2c1[nH]c(=S)c1ccccc12"
testedsystem = "SNB-75"
labelvalue = "0 (no)"

[[record]]
compound = "CN1Cc2c(nc(-c3ccc(Br)cc3)c[n+]2[O-])N(C)C1"
testedsystem = "SNB-75"
labelvalue = "0 (no)"

[[record]]
compound = "CCC1CCc2c(c(=O)oc3c2cc(OC)c2cccc(OC)c23)C1 (configuration not stated)"
testedsystem = "SNB-75"
labelvalue = "0 (no)"


Recorded test outcome, item CCOC(=O)C(CC(C)C)NC(=O)C(Cc1ccccc1)NC(=O)CNC(=O)OC(C)(C)C (stereo not drawn) (Boc-Gly-Phe-Leu-OEt; configuration not given here)
0 (no)

Recorded test outcome, item `O=C1C=C(NCCc2cc(Br)c(O)c(Br)c2)C(=O)c2[nH]cnc21`
0 (no)

Recorded test outcome, item `N#Cc1ccc(OCCSCCCCCCCCCCSCCOc2ccc(C#N)cc2)cc1`
0 (no)

Recorded test outcome, item `O=C(Nc1sccc1S(=O)(=O)c1ccc(Cl)cc1)c1ccc(Cl)cc1Cl`
0 (no)

* * *

Tested on: U-251
runDescription: NCI tumour cell line growth inhibition, 48 h
Active and inactive are the calls of the source. No stated cut-off is given here; in the data, active = GI50 up to about 1.1 µM and inactive = higher.
GI50 listing for selected molecules.

[[record]]
molecule = "OCC(O)C(Cl)CCl (centres undefined)"
testedsystem = "U-251"
experimentalreadout = "GI50"
endpointresult = "> 100 µM (inactive)"

[[record]]
molecule = "Cc1ccc(S(=O)(=O)NC2=NS(=O)(=O)c3cc(C)c(Cl)cc3S2)cc1"
testedsystem = "U-251"
experimentalreadout = "GI50"
endpointresult = "> 100 µM (inactive)"


Query CCOC(=O)CCC(NC(=O)c1ccc(/N=C/c2nc3cc(C(F)(F)F)ccc3nc2-c2ccccc2)cc1)C(=O)OCC (centres undefined) on U-251; GI50 returned: 6.07 µM (inactive)

Query `CC(C)OP(=O)(OC(C)C)/C(C#N)=C/c1c[nH]c2ccccc12` on U-251; GI50 returned: > 100 µM (inactive)

Query Clc1ccc2c(NC3CCC(N4CCCCC4)CC3)ccnc2c1 (centres undefined) on U-251; GI50 returned: 21 µM (inactive)
